target or test system: T1, 383 amino acid recombinant tau (UniProt P10636-6 1-383, biotinylated where printed as biotin-rTau383 (position not given))
T1 construct: also called rTau383
T1 sequence (P10636 other isoform, or with tags, fused parts or gaps limits assumed): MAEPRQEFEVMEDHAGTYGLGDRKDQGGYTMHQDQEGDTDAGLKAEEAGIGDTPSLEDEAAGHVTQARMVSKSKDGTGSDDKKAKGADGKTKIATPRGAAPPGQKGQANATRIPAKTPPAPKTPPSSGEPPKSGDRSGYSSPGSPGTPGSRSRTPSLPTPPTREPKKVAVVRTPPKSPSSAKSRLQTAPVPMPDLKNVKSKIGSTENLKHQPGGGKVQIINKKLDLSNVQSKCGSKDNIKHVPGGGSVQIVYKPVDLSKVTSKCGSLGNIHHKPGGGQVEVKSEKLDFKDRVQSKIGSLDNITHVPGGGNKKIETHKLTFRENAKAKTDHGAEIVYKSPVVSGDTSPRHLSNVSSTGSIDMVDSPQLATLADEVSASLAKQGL
test: Octet
Known koff of a selection of binders
The answer is to be given in s⁻¹; state only the numeric part.

Fill in: koff of VH1/Vk4 (antibody, V domains shown, member of the group m7; also called humanized IPN002 variant VH1/Vk4) VH: EVHLVESGGALVKPGGSLRLSCAASGFSFSKYGMSWVRQAPGKGLEWVATISSSGSRTYYPDSVKGRFTISRDNAKNTLYLQMSSLKSEDTAMYYCSISWDGAMDYWGQGTSVTVSS VL: DVVMTQSPLSLPVTLGQPASISCKSSQSIVHSNGNTYLEWYLQKPGQSPQLLIYKVSNRFSGVPDRFSGSGSGTDFTLKISRVEAEDVGVYYCFQGSLVPWAFGGGTKVEIK is ___ 9.52e-05

Fill in: koff of VH4/Vk1 (antibody, V domains shown, member of the group m7; also called humanized IPN002 variant VH4/Vk1) VH: EVQLVESGGALVKPGGSLRLSCAASGFSFSKYGMSWVRQAPGKGLEWVATISSSGSRTYYPDSVKGRFTISRDNAKNTLYLQMNSLRAEDTAMYYCAISWDGAMDYWGQGTTVTVSS VL: DVLMTQSPLSLPVTLGQPASISCKSSQSIVHSNGNTYLEWYLQKPGQSPQLLVYKVSNRFSGVPDRFSGSGSGTDFTLKISRVEAEDVGTYYCFQGSLVPWAFGGGTKVEIK is ___ 0.000297

Fill in: koff of VH4/Vk4 (antibody, V domains shown, member of the group m7; also called humanized IPN002 variant VH4/Vk4) VH: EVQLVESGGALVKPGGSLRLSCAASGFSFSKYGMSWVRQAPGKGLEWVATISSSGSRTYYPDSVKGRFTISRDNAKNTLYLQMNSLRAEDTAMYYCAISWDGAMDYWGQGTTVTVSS VL: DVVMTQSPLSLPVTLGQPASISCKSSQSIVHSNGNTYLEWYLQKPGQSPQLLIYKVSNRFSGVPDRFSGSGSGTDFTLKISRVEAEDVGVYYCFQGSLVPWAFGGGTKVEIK is ___ 0.000126

Fill in: koff of humanized IPN002 variant VH2/Vk2 (antibody, V domains shown) VH: EVHLVESGGALVKPGGSLRLSCAASGFSFSKYGMSWVRQAPGKGLEWVATISSSGSRTYYPDSVKGRFTISRDNAKNTLYLQMNSLRAEDTAMYYCSISWDGAMDYWGQGTTVTVSS VL: DVVMTQSPLSLPVTLGQPASISCKSSQSIVHSNGNTYLEWYLQKPGQSPQLLVYKVSNRFSGVPDRFSGSGSGTDFTLKISRVEAEDVGTYYCFQGSLVPWAFGGGTKVEIK is ___ 4.75e-05
